# TESTED_TARGET: MDM2 (Homo sapiens)
# Construct: ubiquitination of endogenous MDM2 in EU-1 cells; endogenous in cells; host or cells: EU-1 (ALL) cells
# Sequence (Q00987 whole entry): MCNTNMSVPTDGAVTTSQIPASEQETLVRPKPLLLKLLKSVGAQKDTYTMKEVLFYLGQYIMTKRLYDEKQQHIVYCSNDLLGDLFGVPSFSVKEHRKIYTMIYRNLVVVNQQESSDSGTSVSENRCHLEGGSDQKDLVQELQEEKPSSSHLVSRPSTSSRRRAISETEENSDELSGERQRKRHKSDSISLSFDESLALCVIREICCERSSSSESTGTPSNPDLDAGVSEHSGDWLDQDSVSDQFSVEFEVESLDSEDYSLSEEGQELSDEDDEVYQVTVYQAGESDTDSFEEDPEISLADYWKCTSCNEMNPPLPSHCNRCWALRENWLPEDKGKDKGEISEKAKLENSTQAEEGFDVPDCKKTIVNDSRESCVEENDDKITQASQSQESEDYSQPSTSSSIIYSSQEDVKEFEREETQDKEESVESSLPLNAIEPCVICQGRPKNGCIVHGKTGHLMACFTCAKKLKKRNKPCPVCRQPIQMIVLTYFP
# EXPERIMENT_NOTES: MDM2 reduction / expression (Western blot)
# Type: cell-based
# SETUP_CONDITIONS: words or +/− grades, key not given
OBSERVED_PROPERTY: MDM2 reduction

These solved cases illustrate the format of a correct answer.
1. COC(=O)c1ccc([C@H]2CC(O)c3cc(S(=O)(=O)Nc4ccc(C)c(C)c4)ccc3N2)cc1 (stereo partly drawn)    No MDM2
2. CCCC(=O)c1ccc(C2Nc3ccc(S(=O)(=O)Nc4ccc(C)c(C)c4)cc3[C@H]3OCC[C@@H]23)cc1 (stereo partly drawn)    No MDM2
3. Cc1ccc(NS(=O)(=O)c2ccc3c(c2)[C@H]2NCC[C@H]2[C@@H](c2ccc(C(=O)C(C)C)cc2)N3)cc1C    inhibition
4. Cc1ccc(NS(=O)(=O)c2ccc3c(c2)[C@H]2OCC[C@H]2[C@H](C2CCNCC2)N3)cc1C    No MDM2
5. CC(=O)c1cccc(NS(=O)(=O)c2ccc3c(c2)C(=O)CC(c2cccc(C(C)=O)c2)N3)c1 (stereo not drawn)    inhibition

Please turn your attention to the following entry.
Q. Enter reported MDM2 reduction observed with MDM2 (Homo sapiens) for Cc1ccc(NS(=O)(=O)c2ccc3c(c2)C2OCC[C@H]2C(c2ccc(C(=O)C(C)C)cc2)N3)cc1C (stereo partly drawn) [Compound 69L52]
A. inhibition
